Data provenance: patent US20230322924A1

# ASSAYED_TARGET: T1, Cyno CD33 full length, expressed on HEK293F cells (cynomolgus monkey)
# T1 construct: HEK293F cells transduced with lentivirus containing full length cyno CD33 (Genbank XP_005590138.1); also called cyCD33
# ASSAY_REMARKS: flow cytometry, HEK293F cells expressing cyno CD33
MEASURED_QUANTITY: MFI at 0 nM mAb (background) (MFI)
One number for each entry, in MFI.

binder="C33B96 (antibody, IgG1, V domains shown, huIgG1 F405L; also called C33F101; C33H99/C33L37) VH: EVQLVESGGGLVQPGGSLRLSCAASGFTFSSYWMTWVRPAPGKGLEWVANIKRDGGEKYYVDSVKGRFTISRDNAANSLYLQMNSLRVEDTAVYYCARPFYDHFDYWGQGTLVTVSS VL: SYVLTQPPSVAVAPGQTARITCGGSNIGKISVHWYQQKAGQAPVLVVHDDRARPSGIPERLSGSNSGTTATLTISRVEVGDEADYYCQVWNSSSVHPVFGGGTKLTVL" measured_quantity="MFI at 0 nM mAb (background)" reported_value=86.3
binder="C33B88 (antibody, IgG1, V domains shown, huIgG1 F405L; also called C33F93; C33H88/C33L61) VH: QVQLVQSGSELKKPGASVKVSCKASGYTLTRSAMNWVRQAPGQGLEWMGWINTNTGNPTYAQGFTGRFVFSLDTSVNTAYLLISSLKTEDTAVYYCASDILPGYHEDYWGQGTLVTVSS VL: QSALTQPASVSGSPGQSITISCTGINSDVGSYDLVSWYQQHPGKAPKLLIYDGSERPSGVFGRFSGSKSDNTTSLTISGLQAEDEAAYYCCSYEVTTTYVVFGGGTKLTVL" measured_quantity="MFI at 0 nM mAb (background)" reported_value=90.1

In the following, a different binder is considered.
// query Any idea what MFI at 0 nM mAb (background) was measured for C33B125 (antibody, IgG1, V domains shown, huIgG1 F405L; also called C33F130; C33H84/C33L66) VH: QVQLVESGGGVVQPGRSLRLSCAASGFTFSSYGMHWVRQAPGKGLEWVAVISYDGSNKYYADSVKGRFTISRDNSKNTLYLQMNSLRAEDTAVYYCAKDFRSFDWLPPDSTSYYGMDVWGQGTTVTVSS VL: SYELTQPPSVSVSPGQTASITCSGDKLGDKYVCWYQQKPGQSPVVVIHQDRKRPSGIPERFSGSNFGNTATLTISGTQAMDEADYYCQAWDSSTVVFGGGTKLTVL ?
// result 70.2
